Record form. Attribute: EC50 group, cGMP in GTM-3 cells. Fill in for each entry.
Biological target: T1, natriuretic peptide receptor-B (human)
T1 chain: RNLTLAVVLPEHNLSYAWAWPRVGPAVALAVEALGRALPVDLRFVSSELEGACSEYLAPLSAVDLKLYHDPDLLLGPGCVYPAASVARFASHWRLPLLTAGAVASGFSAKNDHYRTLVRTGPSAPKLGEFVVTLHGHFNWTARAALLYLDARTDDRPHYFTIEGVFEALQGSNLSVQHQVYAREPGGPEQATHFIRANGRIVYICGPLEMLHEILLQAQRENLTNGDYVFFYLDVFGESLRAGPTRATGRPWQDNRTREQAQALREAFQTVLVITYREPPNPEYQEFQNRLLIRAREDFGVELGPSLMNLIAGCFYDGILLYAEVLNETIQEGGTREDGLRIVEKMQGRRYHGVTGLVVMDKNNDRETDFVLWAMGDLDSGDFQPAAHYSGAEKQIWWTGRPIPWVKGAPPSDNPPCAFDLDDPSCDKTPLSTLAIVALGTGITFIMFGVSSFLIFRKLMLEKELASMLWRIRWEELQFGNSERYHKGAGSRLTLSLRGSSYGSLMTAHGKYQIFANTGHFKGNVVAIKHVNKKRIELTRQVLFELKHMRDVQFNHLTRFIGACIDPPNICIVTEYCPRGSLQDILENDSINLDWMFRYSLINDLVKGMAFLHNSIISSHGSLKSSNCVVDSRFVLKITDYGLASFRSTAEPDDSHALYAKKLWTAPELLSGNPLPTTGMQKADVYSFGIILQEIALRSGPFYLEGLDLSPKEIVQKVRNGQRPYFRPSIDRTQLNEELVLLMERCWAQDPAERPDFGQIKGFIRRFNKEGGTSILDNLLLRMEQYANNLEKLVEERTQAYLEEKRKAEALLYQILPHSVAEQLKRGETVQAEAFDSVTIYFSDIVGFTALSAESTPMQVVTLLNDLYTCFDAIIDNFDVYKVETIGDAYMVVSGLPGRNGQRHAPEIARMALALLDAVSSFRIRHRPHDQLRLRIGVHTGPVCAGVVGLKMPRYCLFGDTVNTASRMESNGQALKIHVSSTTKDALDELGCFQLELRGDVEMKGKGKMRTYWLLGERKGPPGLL
Test: cell-based or functional assay
Numbered stars: 1 amine (or outer) side, 2 acyl side, 3 side chain; on linkers, the order of the positions; unused ones are H or OH. Square brackets hold non-standard residues; d marks the D form. Ends that are not written are not given here. * marks the point of attachment. Tap(Ae) = (2S,4R)-4-(2-aminoethylamino)pyrrolidine-2-carboxylic acid, O=C([C@@H]1C[C@@H](NCCN[*:3])CN1[*:1])[*:2]; Ebe = (R)-2-amino-3-(methylsulfanyl)propanoic acid, CSC[C@H](N[*:1])C(=O)[*:2]; Pro(trans-4-NH2) = O=C([C@@H]1C[C@@H](N[*:3])CN1[*:1])[*:2]; Sni = (S)-nipecotic acid, O=C([C@H]1CCCN([*:1])C1)[*:2]; Eat = 2,3-dihydro-1H-indole-2-carboxylic acid; Pro(4S-NH2) = N[C@@H]1CN[C@H](C(=O)O)C1; cisHyp = O=C(O)[C@@H]1C[C@H](O)CN1; dDap(Me2) = CN(C)C[C@@H](N)C(=O)O; Hyp = O=C(O)[C@@H]1C[C@@H](O)CN1; NMeF = CN[C@@H](Cc1ccccc1)C(=O)O; NMeL = CN[C@@H](CC(C)C)C(=O)O; Ac6c = NC1(C(=O)O)CCCCC1; Octanoyl = CCCCCCCC(=O)*; 1859 = not defined here; leu = not defined here; Occ = octanoic acid

Octanoyl-AF[leu]L[Hyp][NMeL]D[cisHyp]I-NH2 (not fully specified (some residues); printed as Occ-ala-Phe-leu-Leu-Hyp-Nml-Asp-Chy-Ile-NH2; reading uncertain) [JAL-1476]	≤ 5 µM
Octanoyl-[dA]F[dR]L[Hyp][Eat]DRI-NH2 [JAL-1394]	≤ 15 µM
Octanoyl-[Sni]F[dL]L[Tap(Ae)][NMeL]DRI-NH2 [JAL-1371]	≤ 1 µM
Octanoyl-AAFGLKLDR[1859] (not fully specified (some residues); printed as Occ-ala-ala-Phe-Gly-Leu-Lys-Leu-Asp-Arg-1859; reading uncertain) [JAL-0798]	≤ 15 µM
Octanoyl-[dA][NMeF][dR]LP[NMeL]DRI-NH2 [JAL-1076]	≤ 5 µM
Octanoyl-[dA]F[Ac6c]L[Pro(trans-4-NH2)][NMeL]DRI-NH2 [JAL-1454]	≤ 1 µM
[Occ]AFGL[Pro(4S-NH2)]LDRI-NH2 (not fully specified (residue 2); printed as Occ-ala-Phe-Gly-Leu-Apr-Leu-Asp-Arg-Ile-NH2) [JAL-0974]	≤ 5 µM
Octanoyl-[dA]F[dDap(Me2)]L[Pro(trans-4-NH2)][NMeL]DPI-NH2 [JAL-1453]	≤ 1 µM
Octanoyl-[dA]F[dK]LP[NMeL]ARI-NH2 [JAL-1068]	≤ 15 µM
Octanoyl-AFRL[Hyp][Ebe]DRI-NH2 (not fully specified (some residues); printed as Occ-ala-Phe-arg-Leu-Hyp-Ebe-Asp-Arg-Ile-NH2) [JAL-1227]	≤ 5 µM

For every record below, what is its EC50 group, cGMP in GTM-3 cells?
1. Octanoyl-AFRLK[NMeL]DRI-NH2 (not fully specified (some residues); printed as Occ-ala-Phe-arg-Leu-Lys-Nml-Asp-Arg-Ile-NH2) [JAL-1228]
2. Octanoyl-[dA]F[dK]LPLDRI-NH2 [JAL-1030]

1: ≤ 5 µM; 2: ≤ 5 µM

Source of measurements: patent US9187525B2
